# System: ECHCG
# Protocol Summary: Post-emergence action at 320 g/ha against ECHCG
# Assay type: in vivo, Echinochloa crus-galli
# Particulars: dosage 320 g/ha, visual rating about 3 weeks after treatment vs untreated controls (100% = plants died)
# From the text: Accordingly, the compounds of the invention have good herbicidal action against a broad spectrum of weed grasses and broad-leaved weeds and are therefore suitable for controlling unwanted vegetation by the post-emergence method. • b) Seeds of monocotyledonous and dicotyledonous weeds and crop plants are placed in sandy loam in plastic or organic planting pots, covered with soil and cultivated in a greenhouse under controlled growth conditions. […]
Give measured Post-emergence action at 320 g/ha against ECHCG in % for each item. Keep answers brief.
Numbers only, in %.

CCOC(=O)COc1nn(-c2ccccc2F)c(-c2ccc(F)nc2)c1Br [VII-012]; 90
COC(=O)CNC(=O)COc1nn(-c2ccccc2F)c(-c2ccc(F)nc2)c1Br [Example X-002]; 100
COC(=O)[C@@H](C)Oc1nn(-c2cc(F)ccc2F)c(-c2cncc(F)c2)c1C#N [VII-147]; 80

# context switch: different compound, same Post-emergence action at 320 g/ha against ECHCG in %
## Input Indicate the recorded Post-emergence action at 320 g/ha against ECHCG in % value for this compound: COC(=O)[C@@H](C)Oc1nn(-c2cc(F)ccc2F)c(-c2cncc(F)c2)c1Br [VII-132]
## Output 80

====

# Test system: POLCO
# Protocol Summary: Post-emergence action at 320 g/ha against POLCO
# Type: in vivo, Fallopia convolvulus (Polygonum convolvulus)
# Particulars: visual rating about 3 weeks after treatment vs untreated controls
Give measured Post-emergence action against POLCO in % for each item. Keep answers brief.
In your response, the unit should come after the numeric value.

# example entries with known answers
CCOC(=O)C(C)Oc1nn(-c2ccccc2F)c(-c2ccc(F)nc2)c1Br (stereo not drawn) [VII-019]; 90%
CC(C)OC(=O)COc1nn(-c2ccccc2F)c(-c2ccc(F)nc2)c1Br [VII-005]; 80%
CCC(Oc1nn(-c2ccccc2F)c(-c2ccc(F)nc2)c1Br)C(=O)OC (stereo not drawn) [VII-029]; 80%
CCOC(=O)COc1nn(-c2ccc(F)cc2F)c(-c2ccc(F)nc2)c1Cl [VII-016]; 90%

Hi, could you look up Post-emergence action against POLCO in % for each item in my list?
1. CN(C)S(=O)(=O)NC(=O)COc1nn(-c2ccccc2F)c(-c2ccc(F)nc2)c1Br [Example X-005]
2. COC(=O)COc1nn(-c2ccccc2F)c(-c2ccc(F)nc2)c1F [VII-040]

## Output
80%
90%

====

Give measured Pre-emergence action against AMARE for each item. Keep answers brief.
# System: AMARE
# Protocol Summary: Pre-emergence action against AMARE, 1280 g/ha
# Type: in vivo, Amaranthus retroflexus
# Particulars: scored visually after about 3 weeks vs untreated controls (100% = plants have died)
One number for each entry, in %.

# example entries with known answers
COC(=O)CNC(=O)COc1nn(-c2ccccc2F)c(-c2ccnc(F)c2)c1Br; 100
O=C(O)C1CCCN1C(=O)COc1nn(-c2ccccc2F)c(-c2ccc(F)nc2)c1Br (centres unmarked); 100
O=C(O)COc1nn(-c2ccccc2F)c(-c2cnccn2)c1Br; 90
COC(=O)COc1nn(-c2cc(F)ccc2F)c(-c2ccc(F)nc2)c1C#N; 100

# context switch: different molecule, same Pre-emergence action against AMARE
## Input Determine reported Pre-emergence action against AMARE for N#CCCNC(=O)COc1nn(-c2ccccc2F)c(-c2ccc(F)nc2)c1Br ; test system: AMARE.
## Output 100

The values you see were collected from patent US12180187B2.
